# Test system: Vero E6
# Assay info: cell viability relative to DMSO; higher = less toxic
# Conditions used: 72 h; 10 nM
Assay metric: cell viability (%)
Reply with just the number (in %).

INSERT INTO results (compound, experimental_target, assay_metric, value_measured) VALUES
  ('C=CCN1CC[C@]23c4c5ccc(O)c4O[C@H]2[C@@H](OCCOCCOCCOCCOCCOCCOCCOC)CC[C@@]3(O)[C@H]1C5', 'Vero E6', 'cell viability', 96.7),
  ('NCCCCCc1c[nH]cn1', 'Vero E6', 'cell viability', 99.3),
  ('CC(=O)O[C@]1(C(C)=O)CC[C@H]2[C@@H]3C=CC4=CC(=O)CC[C@]4(C)[C@H]3CC[C@@]21C [6,7-dehydro-17-acetoxy-progesterone]', 'Vero E6', 'cell viability', 99.5),
  ('O=[N+]([O-])c1ncc[nH]1', 'Vero E6', 'cell viability', 102),
  ('O=[N+]([O-])c1ccc(O)c([N+](=O)[O-])c1', 'Vero E6', 'cell viability', 103),
  ('Cc1cc(-c2cc(OC(=O)c3ccccc3)ccc2Cl)cc2nnc(Nc3ccc(OCCN4CCCC4)cc3)nc12', 'Vero E6', 'cell viability', 97.3),
  ('COc1cc2ncnc(Nc3cccc(Cl)c3F)c2cc1OC(=O)N1CCN(C)C[C@H]1C', 'Vero E6', 'cell viability', 90.3),
  ('Nc1n[nH]c2nc3ccccc3nc12', 'Vero E6', 'cell viability', 96.1);

Input O=C1C2C=Nc3ccccc3C2=NN1c1ccc(Cl)cc1 (stereo unspecified) . Output cell viability: 103

Input COc1ccccc1Oc1c(NS(=O)(=O)c2ccc(C)cn2)nc(-c2ccncc2)nc1OC . Output cell viability: 102

Input CC(C)(Oc1ccc(Cl)cc1)C(=O)OCCOC(=O)c1cccnc1 [etofibrate] . Output cell viability: 99.7

====

# System: Calu-3
# Assay info: cell viability relative to DMSO; higher = less toxic
# Conditions used: 72 h; 10000 nM
Assay metric: cell viability (%)
Reply with just the number (in %).

INSERT INTO measurements (molecule, value_measured) VALUES
  ('OC[C@H]1O[C@@H](Oc2cc(O)cc(/C=C/c3ccc(O)cc3)c2)[C@H](O)[C@@H](O)[C@@H]1O', 102);

Input CCC(=O)OCN1C(=O)C=CC1=O . Output cell viability: 98.9

Input O=C1C2C=Nc3ccccc3C2=NN1c1ccc(Cl)cc1 (stereo not drawn) . Output cell viability: 103

====

# Tested on: U2OS
# Assay info: drug sensitivity score (DSS) for viability; higher = more toxic; extreme values may be limits of the assay
# Conditions used: 72 h
drug sensitivity score values for the compounds below.
Reply briefly: the number, and no unit.

Input Cc1nc(C)c(C)nc1C . Output drug sensitivity score: 0

Input c1ccc(C(NCCNC(c2ccccc2)c2ccccc2)c2ccccc2)cc1 . Output drug sensitivity score: 0

Input CSc1ccc([C@H]2CN3CCC[C@H]3c3ccccc32)cc1 (racemic) [McN-5652-(+/-)] . Output drug sensitivity score: 0

Input CN1CCc2c(c3ccccc3n2Cc2ccc(C(=O)NO)cc2)C1 . Output drug sensitivity score: 1

Input CN1CCC(COc2cnc(-c3cccc(Cn4nc(-c5cccc(C#N)c5)ccc4=O)c3)nc2)CC1 . Output drug sensitivity score: 0

Input CN(C)/C=N/c1c(I)cc(I)c(CCC(=O)O)c1I . Output drug sensitivity score: 0

Input Cc1ccc(Cl)cc1N(CC(=O)Nc1c(F)cccc1F)S(C)(=O)=O . Output drug sensitivity score: 0

Input CC1(C)CC[C@]2(NC(=O)C(C)(F)F)CC[C@]3(C)[C@H](C(=O)C=C4[C@@]5(C)C=C(C#N)C(=O)C(C)(C)[C@@H]5CC[C@]43C)[C@@H]2C1 [Omaveloxolone (RTA-408)] . Output drug sensitivity score: 17.9

Input CCN(CC)CCCC(C)Nc1ccnc2cc(Cl)ccc12 (stereo not drawn) . Output drug sensitivity score: 0

Input O=C(NCc1ccccc1)c1csc(Nc2ccncn2)n1 . Output drug sensitivity score: 0.6

Input O=[N+]([O-])c1cc(Cl)ccc1S(=O)(=O)N1CCN(Cc2ccccc2)CC1 . Output drug sensitivity score: 0

Input CC(C)(Oc1ccc(Cl)cc1)C(=O)O . Output drug sensitivity score: 0

Input Cc1ccc(/C(=C\CN2CCCC2)c2cccc(/C=C/C(=O)O)n2)cc1 . Output drug sensitivity score: 0

Input O=C(O)c1ccc2nc(-c3cc(Cl)cc(Cl)c3)oc2c1 . Output drug sensitivity score: 0

Input CC(C)(Oc1ccc(Cl)cc1)C(=O)OCCOC(=O)c1cccnc1 [etofibrate] . Output drug sensitivity score: 0

Input CCC(=O)OCN1C(=O)C=CC1=O . Output drug sensitivity score: 0

Input O=C1/C(=C/c2ccccc2)C[C@@]2(O)[C@H]3Cc4ccc(O)c5c4[C@@]2(CCN3CC2CC2)[C@H]1O5 . Output drug sensitivity score: 5.6

Input C/C=C1\NC(=O)[C@H]2CSSCC/C=C/[C@H](CC(=O)N[C@H](C(C)C)C(=O)N2)OC(=O)[C@H](C(C)C)NC1=O . Output drug sensitivity score: 35.1

Input CC(=O)OCC(=O)[C@@]12N=C(C)O[C@@H]1C[C@H]1[C@@H]3CCC4=CC(=O)C=C[C@]4(C)[C@H]3[C@@H](O)C[C@@]12C . Output drug sensitivity score: 0

Input CCCCCCCCCCCCCCCC[n+]1ccn(Cc2ccccc2)c1C . Output drug sensitivity score: 10.7

Input COC(=O)c1cc(OC)c2c(c1-c1c(C(=O)OC)cc(OC)c3c1OCO3)OCO2 [bifendate] . Output drug sensitivity score: 0

Input CNC(=O)c1cccc2cc(Oc3ccnc4cc(OCC5(N)CC5)c(OC)cc34)ccc12 . Output drug sensitivity score: 0

Input COc1ccc2c(C(=S)N(C)CC(=O)O)cccc2c1C(F)(F)F . Output drug sensitivity score: 0
